These data points were gathered from ChEMBL document CHEMBL1681741.

- Test Method Notes: Selectivity index, ratio of IC50 for protein translation inhibition in Escherichia coli S30 cell extract to IC50 for protein translation inhibition in rabbit reticulocytes
- Type: functional
Readout Name: Selectivity ratio

>  <Compound>
CN(C(=O)C[C@@H](N)Cc1ccc(C(=N)N)cc1)C1CNC(NC(N)=O)=NC1=O (mixture of isomers)

>  <Readout Relation>
=

>  <Endpoint Value>
8.2

$$$$
>  <Compound>
CN(C(=O)C[C@@H](N)CCCN)C1CN=C(NC(N)=O)NC1=O (mixture of isomers)

>  <Readout Relation>
<

>  <Endpoint Value>
0.6

$$$$
>  <Compound>
CN(C)C(=O)NC1=NC(=O)C(N(C)C(=O)C[C@@H](N)CCCNC(=N)N)CN1 (mixture of isomers)

>  <Readout Relation>
=

>  <Endpoint Value>
3.4

$$$$
>  <Compound>
C/N=C(/N)N1CCC(C[C@H](N)CC(=O)N(C)C2CNC(NC(N)=O)=NC2=O)CC1 (mixture of isomers)

>  <Readout Relation>
=

>  <Endpoint Value>
14.7

$$$$
>  <Compound>
CN(C(=O)C[C@@H](N)CCC(=O)NC(=N)N)C1CNC(NC(N)=O)=NC1=O (mixture of isomers)

>  <Readout Relation>
=

>  <Endpoint Value>
0.03

$$$$
>  <Compound>
CN(C)C(=N)NCCC[C@H](N)CC(=O)N(C)C1CNC(NC(N)=O)=NC1=O (mixture of isomers)

>  <Readout Relation>
=

>  <Endpoint Value>
4.9

$$$$
>  <Compound>
CN(C(=O)C[C@@H](N)CCCN/C(N)=N\O)C1CNC(NC(N)=O)=NC1=O (mixture of isomers)

>  <Readout Relation>
=

>  <Endpoint Value>
2.8

$$$$
>  <Compound>
CN(C(=O)C[C@@H](N)CCCCCN)C1CNC(NC(N)=O)=NC1=O (mixture of isomers)

>  <Readout Relation>
=

>  <Endpoint Value>
2

$$$$

###

- Tested on: Escherichia coli
- Test Method Notes: Inhibition of protein translation in Escherichia coli S30 cell extract
- Assay type: functional
pIC50: −log10 of the molar value.
Would you mind labelling by pIC50? At or over 5 is 1, under is 0.

>  <Molecule>
CN(C)C(=N)NCCC[C@H](N)CC(=O)N(C)C1CNC(NC(N)=O)=NC1=O (mixture of isomers)

>  <Group Label>
1

$$$$
>  <Molecule>
CN(C(=O)C[C@@H](N)CCC(=O)NC(=N)N)C1CNC(NC(N)=O)=NC1=O (mixture of isomers)

>  <Group Label>
0

$$$$
>  <Molecule>
CN(C(=O)C[C@@H](N)CC1CCN(C(=N)N)CC1)C1CNC(NC(N)=O)=NC1=O (mixture of isomers)

>  <Group Label>
1

$$$$
>  <Molecule>
CN(C(=O)C[C@@H](N)CCCCN)C1CN=C(NC(N)=O)NC1=O (mixture of isomers)

>  <Group Label>
1

$$$$
>  <Molecule>
CC(=O)NC1=NC(=O)C(N(C)C(=O)C[C@@H](N)CCCNC(=N)N)CN1 (mixture of isomers)

>  <Group Label>
1

$$$$
>  <Molecule>
CN1CC(N(C)C(=O)C[C@@H](N)CCCNC(=N)N)C(=O)N=C1NC(N)=O (mixture of isomers)

>  <Group Label>
0

$$$$
>  <Molecule>
CC(=O)NC1=CC(=O)C(N(C)C(=O)C[C@@H](N)CCCNC(=N)N)CN1 (mixture of isomers)

>  <Group Label>
0

$$$$
>  <Molecule>
CN(C(=O)C[C@@H](N)CCCN1CCNC1=N)C1CNC(NC(N)=O)=NC1=O (mixture of isomers)

>  <Group Label>
1

$$$$
>  <Molecule>
CN(C(=O)C[C@H](CCCCN)NC=O)C1CNC(NC(N)=O)=NC1=O (mixture of isomers)

>  <Group Label>
0

$$$$
>  <Molecule>
C/N=C(/N)N1CCC(C[C@H](N)CC(=O)N(C)C2CNC(NC(N)=O)=NC2=O)CC1 (mixture of isomers)

>  <Group Label>
1

$$$$
>  <Molecule>
C/N=C(/NC)NCCC[C@H](N)CC(=O)N(C)C1CNC(NC(N)=O)=NC1=O (mixture of isomers)

>  <Group Label>
1

$$$$
>  <Molecule>
C/N=C(/N)NCCC[C@H](N)CC(=O)N(C)C1CN=C(NC(N)=O)NC1=O (mixture of isomers)

>  <Group Label>
1

$$$$
>  <Molecule>
CCN(C(=O)C[C@@H](N)CCCNC(=N)N)C1CNC(NC(N)=O)=NC1=O (mixture of isomers)

>  <Group Label>
1

$$$$
>  <Molecule>
CN[C@@H](CCCCN)CC(=O)N(C)C1CNC(NC(N)=O)=NC1=O (mixture of isomers)

>  <Group Label>
0

$$$$

###

- Tested on: Escherichia coli
- Test Method Notes: Inhibition of protein translation in Escherichia coli S30 cell extract
- Assay type: functional
List of IC50 values.
Readout Name: IC50 (µM)

>  <Compound>
CCC(=O)NC1=NC(=O)C(N(C)C(=O)C[C@@H](N)CCCNC(=N)N)CN1 (mixture of isomers)

>  <Readout Relation>
<

>  <Endpoint Value>
5

$$$$
>  <Compound>
CN(C(=O)C[C@@H](N)CC1CCNCC1)C1CNC(NC(N)=O)=NC1=O (mixture of isomers)

>  <Readout Relation>
=

>  <Endpoint Value>
6.6

$$$$
>  <Compound>
CN(C(=O)C[C@@H](N)CCCNC(N)=O)C1CNC(NC(N)=O)=NC1=O (mixture of isomers)

>  <Readout Relation>
>

>  <Endpoint Value>
500

$$$$
>  <Compound>
CN(C(=O)C[C@@H](N)C[C@H]1CCN(C(=N)N)C1)C1CNC(NC(N)=O)=NC1=O (mixture of isomers)

>  <Readout Relation>
=

>  <Endpoint Value>
0.17

$$$$
>  <Compound>
CN(C(=O)C[C@@H](N)CCCCCN)C1CNC(NC(N)=O)=NC1=O (mixture of isomers)

>  <Readout Relation>
=

>  <Endpoint Value>
5

$$$$
>  <Compound>
CN(C(=O)C[C@@H](N)CCCNC(=N)N)C1CNC(N2CCNC2=O)=NC1=O (mixture of isomers)

>  <Readout Relation>
>

>  <Endpoint Value>
500

$$$$
>  <Compound>
CC(=O)NC(=N)NCCC[C@H](N)CC(=O)N(C)C1CNC(NC(N)=O)=NC1=O (mixture of isomers)

>  <Readout Relation>
=

>  <Endpoint Value>
106

$$$$

###

- Test system: Escherichia coli
- Test Method Notes: Inhibition of protein translation in Escherichia coli S30 cell extract
- Type: functional
pIC50: −log10 of the molar value.
List of pIC50 values.

>  <Compound>
CN(C(=O)C[C@@H](N)C1CCN(C(=N)N)CC1)C1CNC(NC(N)=O)=NC1=O (mixture of isomers)

>  <Tgt>
Escherichia coli

>  <Readout Relation>
=

>  <pIC50>
6.74

$$$$
>  <Compound>
CN(C(=O)C[C@@H](N)CCCNC(=N)N)C1CN=C(NC(N)=O)NC1 (mixture of isomers)

>  <Tgt>
Escherichia coli

>  <Readout Relation>
=

>  <pIC50>
3.92

$$$$
>  <Compound>
CN(C(=O)C[C@@H](N)Cc1ccc(C(=N)N)cc1)C1CNC(NC(N)=O)=NC1=O (mixture of isomers)

>  <Tgt>
Escherichia coli

>  <Readout Relation>
=

>  <pIC50>
6.29

$$$$
>  <Compound>
CN(C(=O)C[C@@H](N)CCCN)C1CN=C(NC(N)=O)NC1=O (mixture of isomers)

>  <Tgt>
Escherichia coli

>  <Readout Relation>
=

>  <pIC50>
5.05

$$$$
>  <Compound>
CN(C(=O)C[C@@H](N)CCCNC(=N)N)c1ccc(NC(N)=O)[nH]c1=O (mixture of isomers)

>  <Tgt>
Escherichia coli

>  <Readout Relation>
<

>  <pIC50>
3.30

$$$$
>  <Compound>
CN(C(=O)C[C@@H](N)c1cccc(NC(=N)N)c1)C1CNC(NC(N)=O)=NC1=O (mixture of isomers)

>  <Tgt>
Escherichia coli

>  <Readout Relation>
=

>  <pIC50>
6.82

$$$$
>  <Compound>
CN1C(=O)C(N(C)C(=O)C[C@@H](N)CCCNC(=N)N)CN=C1NC(N)=O (mixture of isomers)

>  <Tgt>
Escherichia coli

>  <Readout Relation>
<

>  <pIC50>
3.30

$$$$
>  <Compound>
CN(C(=O)C[C@@H](N)C[C@@H]1CCNC1)C1CNC(NC(N)=O)=NC1=O (mixture of isomers)

>  <Tgt>
Escherichia coli

>  <Readout Relation>
=

>  <pIC50>
5.41

$$$$
